- SUBJECT_OF_TEST: Histone deacetylase 3 (Homo sapiens)
- Sequence (O15379 whole entry): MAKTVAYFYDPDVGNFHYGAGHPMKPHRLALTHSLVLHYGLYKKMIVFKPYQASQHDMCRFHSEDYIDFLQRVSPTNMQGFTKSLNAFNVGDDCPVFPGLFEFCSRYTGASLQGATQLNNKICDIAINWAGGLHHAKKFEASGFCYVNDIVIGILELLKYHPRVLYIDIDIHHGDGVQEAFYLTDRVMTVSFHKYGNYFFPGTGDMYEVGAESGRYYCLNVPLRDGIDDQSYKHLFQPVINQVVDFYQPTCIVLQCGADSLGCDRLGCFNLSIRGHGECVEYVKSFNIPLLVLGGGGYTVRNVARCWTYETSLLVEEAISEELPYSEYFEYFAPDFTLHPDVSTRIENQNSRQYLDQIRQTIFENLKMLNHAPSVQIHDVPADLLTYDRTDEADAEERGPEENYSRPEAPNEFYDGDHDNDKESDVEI
- ASSAY_NOTES: Inhibition of human recombinant HDAC3 expressed in High5 insect cells using Ac-Lys-Tyr-Lys(-acetyl)-AMC as substrate after 24 hrs by fluorescence assay
Give IC50 for every item shown.
A number alone suffices; assume µM.

Inquiry: What does the data say about its IC50? Entry: "COc1cc2c(c(OC)c1OC)-c1ccc(OC)c(=O)cc1[C@@H](NC(=O)CCCCCC(=O)NO)CC2"
Reply text: 1.03

Inquiry: Data request, read-out IC50, for "COc1cc2c(c(OC)c1OC)-c1ccc(OC)c(=O)cc1[C@@H](NC(=O)CCC(=O)NO)CC2"
Reply text: 1.36

Inquiry: Which measured IC50 value corresponds to "COc1cc2c(c(OC)c1OC)-c1ccc(OC)c(=O)cc1[C@@H](NC(=O)CCCCC(=O)NO)CC2" ?
Reply text: 0.83

Inquiry: IC50 lookup needed for "COc1cc2c(c(OC)c1OC)-c1ccc(OC)c(=O)cc1[C@@H](NC(=O)CCCC(=O)NO)CC2" , thanks.
Reply text: 8.36
